Assignment: determine reported IC50 for the given molecules.
- SUBJECT_OF_TEST: CCR2 (Homo sapiens, UniProt P41597)
- Sequence (P41597 whole entry, species assumed): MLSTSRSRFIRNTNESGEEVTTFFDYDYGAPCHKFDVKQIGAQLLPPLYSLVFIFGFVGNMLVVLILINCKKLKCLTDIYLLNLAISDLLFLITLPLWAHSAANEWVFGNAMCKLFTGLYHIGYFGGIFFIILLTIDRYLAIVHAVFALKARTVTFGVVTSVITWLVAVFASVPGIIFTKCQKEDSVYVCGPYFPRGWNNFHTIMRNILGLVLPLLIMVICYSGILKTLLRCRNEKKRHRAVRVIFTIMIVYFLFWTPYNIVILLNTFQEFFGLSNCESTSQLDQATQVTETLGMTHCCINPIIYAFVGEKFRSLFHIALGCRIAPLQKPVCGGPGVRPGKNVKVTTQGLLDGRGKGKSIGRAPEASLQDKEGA
- ASSAY_COMMENT: CCR2 in vitro test: intracellular calcium signal detected by FLIPR
- APPLIED_CONDITIONS: HEK293 cells expressing CCR2, agonist MCP-1 at EC80, calcium signal
Returns: string containing the number followed by the unit.

CCCCOCCOc1ccc(-c2ccc(OC)c(/C=C/C(=O)Nc3ccc([S+]([O-])Cc4cnccc4CC)cc3)c2)cc1 (stereo not shown) : 13 nM

Give measured IC50 for every item shown.
1. CCCOCCOc1ccc(-c2ccc(OCC)c(/C=C/C(=O)Nc3ccc([S+]([O-])Cc4c(C)ncn4CCC)cc3)c2)cc1 (stereo not shown)
2. CCCCOCCOc1ccc(-c2ccc(CC)c(/C=C/C(=O)Nc3ccc([S@@+]([O-])Cc4cncn4CCC)cc3)c2)cc1
3. CCCCOCCOc1ccc(-c2ccc(OC)c(/C=C/C(=O)Nc3ccc([S@@+]([O-])Cc4c(C)ncn4CCC)cc3)c2)cc1

[reply]
35.3 nM
12.1 nM
42.2 nM
